Test: Cytotoxicity against human A431 cells at 30 uM
Type: cell-based, A-431
Details: read-out: Inhibition
experimental_endpoint: cytotoxicity at 30 µM (%)

smiles_representation | reported_relation | obs_value
S=C(NCc1cc2ccccc2[nH]1)SCc1ccccc1 | = | 70.7
CSC1=NCc2[nH]c3ccccc3c2S1 | < | 10
CSC(=S)NCc1cc2ccccc2[nH]1 | = | 78.6
CNC(=S)NCc1cc2ccccc2[nH]1 | < | 10
S=C(NCc1cc2ccccc2[nH]1)Nc1ccccc1 | = | 45.7

====

Experiment: Cytotoxicity against human MCF7 cells at 30 uM
Assay type: cell-based
Settings: read-out: Inhibition

smiles_representation | value_units | reported_relation | cytotoxicity at 30 µM
S=C(NCc1cc2ccccc2[nH]1)Nc1ccccc1 | % | = | 57.4
S=C(NCc1cc2ccccc2[nH]1)SCc1ccccc1 | % | = | 89
c1ccc(CSC2=NCc3[nH]c4ccccc4c3S2)cc1 | % | = | 37.3
CSC1=NCc2[nH]c3ccccc3c2S1 | % | < | 10
CSC(=S)NCc1c[nH]c2ccccc12 | % | = | 21.5
CSC(=S)NCc1cc2ccccc2[nH]1 | % | = | 86.2
CNC(=S)NCc1cc2ccccc2[nH]1 | % | < | 10

Recorded values, source ChEMBL document CHEMBL1146145.
